Test system: Plasmodium falciparum
METHOD DESCRIPTION: Screen against P. falciparum Asexual Blood Stage (ABS), at 5uM
Assay type: functional, Dd2
COND: tested at 5 uM
The campaign covered roughly 65,000 compounds. About 2,100 (3.2%) showed an effect of 50% or more. The median lay at about -52%. The entries come from a sample that favours strong results as a whole.
Please map values of INHIBITION to classes as shown: low bin = under -60%, mid bin = from -60% up to 60%, high bin = 60% and over

Answered examples (10):
| MOLECULE | ASSIGNED CATEGORY |
| --- | --- |
| CC(C)=CCN1C[C@@H]2CC[C@H]1CN(C(=O)Cc1c(C)[nH]c(C)nc1=O)C2 | mid bin |
| Cn1c(=O)n(C)c2cc(C3SCC(=O)Nc4ccsc43)ccc21 (stereo unspecified) | low bin |
| CCc1nnc(C(C)N2CCCN(C(=O)Oc3ccccc3)CC2)o1 (stereo unspecified) | low bin |
| O=S(=O)(NC[C@H]1C[C@@H]2CCN1C[C@@H]2CN1CCCC1)c1ccc(Cl)cc1 | high bin |
| Cc1ccc(CN(c2cc(C)nc3nc(C(F)(F)F)nn23)C2CC2)cc1 | high bin |
| COc1cc(F)ccc1C(C(=O)O)N(C)CCN1CCCC1 (stereo unspecified) | high bin |
| CC(C)(N)C(=O)N1CCCC1c1cncc(Oc2ccccc2)n1 (stereo unspecified) | high bin |
| FC(F)(F)c1cc(-c2cccs2)nc(N2CCN3CCCC3C2)n1 (stereo unspecified) | mid bin |
| CN(c1ncccc1C#N)C1CCN(Cc2ccncc2)CC1 | low bin |
| Cc1ccc(F)cc1CC(=O)N(CCN1CCOCC1)Cc1ccco1 | mid bin |

Now turn to the next molecule.
Prompt line: Class (by measured INHIBITION) for COCCN1CCO[C@@H]2CN(S(=O)(=O)c3cccnc3)C[C@@H]2C1
Response line: low bin

====

System: Plasmodium falciparum
METHOD DESCRIPTION: Screen against P. falciparum Asexual Blood Stage (ABS), at 5uM
Format: functional, Dd2
COND: tested at 5 uM
Out of some 65,000 compounds screened, about 2,100 (3.2%) showed an effect of 50% or more. The median lay at about -52%. The sample holds strong results, similar compounds and a random draw of the others, so the mix is not that of the screen.
Returns one of yes or no; yes when INHIBITION is >= -30%.

Prompt line: INHIBITION >= -30% for Cc1ccccc1CC(C)NC(=O)Nc1cnn(CC(N)=O)c1 (centres undefined) ?
Response line: yes

Prompt line: I'd appreciate it if you could say whether Cc1cnccc1N1CCN(C[C@]2(O)CCCN3CCCC[C@@H]32)CC1 has INHIBITION at least equal to -30%.
Response line: yes

Prompt line: hey, is INHIBITION for this one >= -30%? CC(C)N1CCCC(Cc2nccnc2Cl)C1 (centres undefined)
Response line: no

Prompt line: Could you verify whether the entry O[C@@]1(CNCCCNc2cccnc2)CCCN2CCCC[C@@H]21 shows INHIBITION of no less than -30%?
Response line: no

Prompt line: Does the reported INHIBITION for CCn1ccnc1CN1CCCC1C(=O)Nc1nccs1 (centres undefined) fall at or above the -30% mark?
Response line: yes

Prompt line: # check: INHIBITION of COCCN1CCN(S(=O)(=O)C2CC2)Cc2ccc(C)nc21 is greater than or equal to -30%
Response line: yes

Prompt line: Please indicate if the recorded INHIBITION for O=C(COc1cccc(F)c1)N1C[C@@H](O)[C@H](N2CCCC2)C1 meets or exceeds -30%.
Response line: no

Prompt line: hey, is INHIBITION for this one >= -30%? O=C(Cc1cccs1)N1C[C@@H]2OCCN(CC3CCCO3)[C@@H]2C1 (some centres undefined)
Response line: no

Prompt line: Quick check, INHIBITION >= -30%? CNCCc1nc2cc(F)ccc2[nH]1
Response line: no

Prompt line: In plain terms: is recorded INHIBITION at least -30% for CCc1ncc(CN2C[C@@H]3CC[C@H]2CN(C(=O)C2CCC2)C3)cn1 ?
Response line: no

Prompt line: Hi team, for O=C(Nc1nccs1)C1CCCN1Cc1ccccn1 (centres undefined) , is the recorded INHIBITION at or above -30%?
Response line: yes

Prompt line: # bool: INHIBITION of Cc1nc(CC(=O)N2CCCC[C@H](N(C)C)C2)cs1 >= -30%
Response line: no

Prompt line: Dear colleague, could you confirm whether Cc1nc2c(C)cccc2cc1C(=O)N1CCC2(CCCNC2)C1 (centres undefined) has INHIBITION at or above -30%?
Response line: no

Prompt line: Please indicate if the recorded INHIBITION for Cc1ccccc1N1CCCN(CC2(O)CCCNC2)CC1 (centres undefined) meets or exceeds -30%.
Response line: yes

Prompt line: # check: INHIBITION of Cc1nnc([C@@H]2C[C@H]3CN(C4CCC4)C[C@H]3O2)[nH]1 is greater than or equal to -30%
Response line: no

Prompt line: Evaluate CN1CCO[C@@H]2CN(C(=O)c3ccc4ncccc4c3)CC[C@@H]2C1 : INHIBITION at minimum -30%?
Response line: no

Prompt line: API: above_or_equal(metric=INHIBITION, cutoff=-30%) for item O=C(c1ccnc(-n2cnnc2)c1)N1CCCC2(CCNC2)C1 (centres undefined)
Response line: no

Prompt line: INHIBITION >= -30% for CCN1CCNC(=O)C12CCN(C(=O)c1ccccn1)CC2 ?
Response line: no

Prompt line: Decide: INHIBITION of CC(=O)N1CC2(CCNCC2)c2cc(C)ccc21 >= -30%?
Response line: yes

Prompt line: Item Fc1ccc2[nH]c(C3CCCN3Cc3c[nH]cn3)nc2c1 (centres undefined) with INHIBITION of -30% or above?
Response line: yes

Prompt line: Kindly determine if INHIBITION recorded for CN(C)[C@H]1CCCCN(C(=O)c2cccc(-c3cccc(F)c3)c2)C1 is above or exactly -30%.
Response line: yes

Prompt line: Identify whether the reported INHIBITION of the following compound is -30% or greater: Cc1ccc(C)c(N2CCN(CC3(O)CCNC3)CC2)c1 (centres undefined)
Response line: yes

Prompt line: Identify whether the reported INHIBITION of the following compound is -30% or greater: CN(C)C(=O)c1ccc(-c2cccc3c2CCNC3)o1
Response line: no

Prompt line: Quick check, INHIBITION >= -30%? O=C(C1CCC1)N1CC[C@]2(O)CCN(Cc3ncccn3)C[C@@H]2C1
Response line: no

Prompt line: Hello, I need to know if O=C(O)[C@@H]1CN(CC(=O)N2CCCCC2)C[C@H]1c1ccc(F)cc1 has measured INHIBITION not below -30%. Thanks!
Response line: no

Prompt line: # bool: INHIBITION of Cc1cccc(CN2C(=O)C[C@@H]3[C@@H]2CCN3Cc2ccsc2)n1 >= -30%
Response line: yes

Prompt line: Decide: is the reported value of INHIBITION for O=C(NCc1cnn2cccnc12)C1CC2(CCNCC2)CN1 (centres undefined) equal to or greater than -30%?
Response line: yes

Prompt line: Tell me whether INHIBITION is at least -30% here: O=C(O)[C@@H]1CN(CC(=O)N2CCCCCC2)C[C@H]1c1ccc(F)cc1
Response line: no

Prompt line: Does CC(C)N1CCO[C@H]2CN(C(=O)c3ccncc3)C[C@H]21 have a reported INHIBITION of at least -30%?
Response line: no

====

Test system: Plasmodium falciparum
METHOD DESCRIPTION: Screen against P. falciparum Asexual Blood Stage (ABS), at 5uM
Format: functional, Dd2
COND: tested at 5 uM
Among all 65,000 compounds or so, about 2,100 (3.2%) showed an effect of 50% or more. The median lay at about -52%. The sample as a whole holds a higher share of strong results than the screen did.
Mark True only when INHIBITION stays strictly below -40%. Values equal to the cut-off are False.

Example entries and their recorded answers appear below.
| COMPOUND | ASSIGNED CATEGORY |
| --- | --- |
| COc1cc(C2(C(=O)NCCn3ccnc3)CCCC2)ccc1C | False |
| C/C(=C\c1ccco1)CN(C)C(C)Cc1ccccn1 (stereo unspecified) | True |
| O=C(N[C@H]1CN[C@H]2CCCO[C@H]21)c1cscn1 | False |

Prompt line: Answer whether the compound COCCNC(=O)C1(c2ccc(C)c(OC)c2)CCCC1 has INHIBITION strictly less than -40%
Response line: False

Prompt line: Strictly below -40%: is that where INHIBITION of Cc1noc(C)c1C(=O)N1CCOC2(COCCN(C(C)C)C2)C1 (stereo unspecified) sits?
Response line: True

Prompt line: Is it true that INHIBITION reported for CCOCCN1CCN(CC(O)c2cc(Cl)ccc2Cl)CC1 (stereo unspecified) is less than -40%?
Response line: False
